Where do the numbers come from? From patent US20110135636A1.

Target: T1, recombinant human EGFR extracellular domain with 6xHis (human, UniProt P00533 25-645)
T1 construct: In-house produced; also called 6xHis EGFR ECD; soluble human EGFR ECD; not shown: 6xHis tag
Assay: SPR competition, competitor 1030corr
Each entry below carries its recorded % inhibition.
Report the value in % with no unit label.

Sample answers from the record:
- BINDER: "antibody 1257 (antibody, human IgG1, kappa, V domains shown, Chimeric IgG1 kappa) VH: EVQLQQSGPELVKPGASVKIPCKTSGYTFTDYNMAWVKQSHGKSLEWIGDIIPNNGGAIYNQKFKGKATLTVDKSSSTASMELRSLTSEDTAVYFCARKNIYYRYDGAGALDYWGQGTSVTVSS VL: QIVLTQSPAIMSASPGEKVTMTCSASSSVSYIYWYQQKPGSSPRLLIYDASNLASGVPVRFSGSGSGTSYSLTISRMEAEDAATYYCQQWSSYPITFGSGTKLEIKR"
  % inhibition, %: 4
- BINDER: "antibody 1320 (antibody, human IgG1, kappa, V domains shown, Chimeric IgG1 kappa) VH: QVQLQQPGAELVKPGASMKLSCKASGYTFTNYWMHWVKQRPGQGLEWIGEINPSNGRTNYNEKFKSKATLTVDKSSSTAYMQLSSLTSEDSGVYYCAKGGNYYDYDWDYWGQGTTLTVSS VL: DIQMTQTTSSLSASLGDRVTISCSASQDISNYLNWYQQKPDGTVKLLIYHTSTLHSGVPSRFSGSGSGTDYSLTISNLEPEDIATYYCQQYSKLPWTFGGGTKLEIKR"
  % inhibition, %: 0
- BINDER: "antibody 1208 (antibody, human IgG1, kappa, V domains shown, Chimeric IgG1 kappa; also called clone 1208) VH: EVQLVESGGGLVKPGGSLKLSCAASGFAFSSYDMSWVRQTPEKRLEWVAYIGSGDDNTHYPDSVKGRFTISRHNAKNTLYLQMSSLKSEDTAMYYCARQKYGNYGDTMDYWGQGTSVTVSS VL: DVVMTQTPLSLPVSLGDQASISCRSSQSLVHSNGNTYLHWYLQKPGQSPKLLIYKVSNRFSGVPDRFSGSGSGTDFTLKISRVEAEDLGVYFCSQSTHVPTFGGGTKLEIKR"
  % inhibition, %: 27
- BINDER: "antibody 1024 (antibody, human IgG1, kappa, V domains shown, Chimeric IgG1 kappa) VH: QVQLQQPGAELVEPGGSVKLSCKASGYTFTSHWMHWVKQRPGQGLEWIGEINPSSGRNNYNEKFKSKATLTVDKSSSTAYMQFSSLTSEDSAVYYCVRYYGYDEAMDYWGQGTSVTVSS VL: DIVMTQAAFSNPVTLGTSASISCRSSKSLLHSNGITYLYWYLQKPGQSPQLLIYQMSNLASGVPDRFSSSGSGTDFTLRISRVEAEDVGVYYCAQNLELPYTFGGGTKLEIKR"
  % inhibition, %: 3
- BINDER: "antibody 992 (antibody, human IgG1, kappa, V domains shown, Chimeric mouse/human IgG1 kappa; the VL entry includes the human kappa constant region) VH: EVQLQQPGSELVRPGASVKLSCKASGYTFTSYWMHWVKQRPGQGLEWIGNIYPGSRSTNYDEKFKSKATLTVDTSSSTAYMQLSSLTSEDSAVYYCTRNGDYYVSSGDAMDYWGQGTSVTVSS VL: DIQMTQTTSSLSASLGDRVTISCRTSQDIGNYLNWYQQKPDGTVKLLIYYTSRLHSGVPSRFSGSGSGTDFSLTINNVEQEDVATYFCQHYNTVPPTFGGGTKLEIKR"
  % inhibition, %: -18
- BINDER: "antibody 1254 (antibody, human IgG1, kappa, V domains shown, Chimeric IgG1 kappa; also called mAb 1254) VH: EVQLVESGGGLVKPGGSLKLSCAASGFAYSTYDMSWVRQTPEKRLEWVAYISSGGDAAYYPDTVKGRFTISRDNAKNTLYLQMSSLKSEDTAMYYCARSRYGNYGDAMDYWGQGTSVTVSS VL: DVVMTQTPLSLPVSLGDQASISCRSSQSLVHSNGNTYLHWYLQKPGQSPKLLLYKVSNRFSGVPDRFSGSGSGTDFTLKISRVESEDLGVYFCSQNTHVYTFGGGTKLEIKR"
  % inhibition, %: 82
- BINDER: "antibody 1308 (antibody, human IgG1, kappa, V domains shown, Chimeric IgG1 kappa) VH: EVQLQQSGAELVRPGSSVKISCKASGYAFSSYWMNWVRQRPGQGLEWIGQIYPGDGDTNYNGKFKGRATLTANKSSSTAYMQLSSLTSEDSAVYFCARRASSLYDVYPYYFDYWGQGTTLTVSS VL: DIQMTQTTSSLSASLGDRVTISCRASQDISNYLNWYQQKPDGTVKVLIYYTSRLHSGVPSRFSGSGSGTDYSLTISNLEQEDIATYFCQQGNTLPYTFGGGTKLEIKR"
  % inhibition, %: -2
- BINDER: "antibody 1347 (antibody, human IgG1, kappa, V domains shown, Chimeric IgG1 kappa) VH: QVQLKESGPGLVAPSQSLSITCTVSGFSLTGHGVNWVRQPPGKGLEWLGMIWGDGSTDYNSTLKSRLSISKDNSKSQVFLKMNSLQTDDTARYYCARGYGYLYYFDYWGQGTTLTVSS VL: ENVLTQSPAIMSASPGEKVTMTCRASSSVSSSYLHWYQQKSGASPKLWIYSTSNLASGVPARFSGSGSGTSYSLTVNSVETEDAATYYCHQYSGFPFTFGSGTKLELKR"
  % inhibition, %: -2
- BINDER: "antibody 1284 (antibody, human IgG1, kappa, V domains shown, Chimeric IgG1 kappa) VH: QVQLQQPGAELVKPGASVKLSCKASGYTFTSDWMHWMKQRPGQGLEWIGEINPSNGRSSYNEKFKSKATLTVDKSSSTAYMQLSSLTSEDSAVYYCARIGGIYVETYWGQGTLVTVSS VL: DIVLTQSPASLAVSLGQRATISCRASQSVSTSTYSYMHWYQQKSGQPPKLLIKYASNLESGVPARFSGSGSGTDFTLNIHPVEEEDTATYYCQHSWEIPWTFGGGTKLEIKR"
  % inhibition, %: -5

Continue with the binder presented below.
Data request: Respond only with % inhibition recorded for antibody 1030 (antibody, human IgG1, kappa, V domains shown, Chimeric IgG1 kappa) VH: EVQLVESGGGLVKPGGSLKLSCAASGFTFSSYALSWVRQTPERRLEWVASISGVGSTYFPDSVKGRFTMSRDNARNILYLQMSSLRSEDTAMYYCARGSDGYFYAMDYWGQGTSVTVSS VL: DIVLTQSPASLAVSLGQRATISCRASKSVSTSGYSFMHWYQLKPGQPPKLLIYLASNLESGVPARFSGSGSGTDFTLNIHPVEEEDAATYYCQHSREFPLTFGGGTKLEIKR
Data returned: 89
